Assay: Toxicity in mouse
Format: organism-based
Settings: in vivo
Measurement Name: MTD (mg/kg)
State just the number; it will be interpreted in mg/kg.

So what's the measured MTD for this one? COc1ccc(Oc2ccccc2)cc1 30
